All figures here come from ChEMBL document CHEMBL3392926.

tested on: Plasmodium falciparum; assay: microbe, parasite or virus in culture; type: functional, organism-based, K1
Description: DNDI: Malaria in Vitro, 72 hour
Result Type: IC50
The answer consists of two parts: a number and, after it, its unit.

Enquiry: State its IC50: Clc1ccc(C(Cn2ccnc2)OCc2ccsc2Cl)c(Cl)c1 (stereo unspecified)
Return: 630 nM

====

system: Plasmodium falciparum; assay: microbe, parasite or virus in culture; assay type: functional, organism-based, K1; conditions: Plasmodium falciparum, K1, 72 h
Listed next: entries and their corresponding pIC50.
# pIC50: negative log10 of molar concentration; output just the value

1. CC(C)CN(C[C@@H](O)[C@H](Cc1ccccc1)NC(=O)O[C@H]1CCOC1)S(=O)(=O)c1ccc(N)cc1: 4.82
2. CN1CCC(=C2c3ccccc3CCc3sccc32)CC1 [PIZOTYLINE]: 5.73
3. Cc1cccc(C)c1OCC(=O)N[C@@H](Cc1ccccc1)[C@@H](O)C[C@H](Cc1ccccc1)NC(=O)[C@H](C(C)C)N1CCCNC1=O [LOPINAVIR]: 5.72

Here is another compound to look at.
Enquiry: State its pIC50: O=C(N/N=C/c1ccc([N+](=O)[O-])o1)c1ccc(O)cc1 [NIFUROXAZIDE]
Return: 5.11

====

Listed next: entries and their corresponding pIC50.
system: Plasmodium falciparum; experiment: microbe, parasite or virus in culture; assay type: functional, organism-based, K1; conditions: Plasmodium falciparum, K1, 72 h
# pIC50: negative log10 of molar concentration; output just the value

1) Cc1nc2ccccn2c(=O)c1CCN1CCC(C(=O)c2ccc(F)cc2)CC1: 5.36
2) CN(C)CCCN1c2ccccc2Sc2ccccc21: 6.31
3) C[C@@H](Cc1cccc(C(F)(F)F)c1)NCCOC(=O)c1ccccc1: 5.19
4) OCCN(CCO)c1nc(N2CCCCC2)c2nc(N(CCO)CCO)nc(N3CCCCC3)c2n1: 5.89
5) CN(C)CCCN1c2ccccc2Sc2ccc(Cl)cc21: 5.52

Enquiry: GET pIC50 | system: Plasmodium falciparum | item: CCC(C)n1ncn(-c2ccc(N3CCN(c4ccc(OCC5COC(Cn6cncn6)(c6ccc(Cl)cc6Cl)O5)cc4)CC3)cc2)c1=O (centres undefined)
Return: 5.86

Enquiry: GET pIC50 | system: Plasmodium falciparum | item: CC(C)CN(C[C@@H](O)[C@H](Cc1ccccc1)NC(=O)O[C@H]1CO[C@H]2OCC[C@H]21)S(=O)(=O)c1ccc(N)cc1
Return: 4.33

Enquiry: GET pIC50 | system: Plasmodium falciparum | item: CC(C)(C)NC(=O)[C@@H]1CC2CCCCC2CN1C[C@@H](O)[C@H](Cc1ccccc1)NC(=O)[C@H](CC(N)=O)NC(=O)c1ccc2ccccc2n1 (some centres undefined)
Return: 4.92

Enquiry: GET pIC50 | system: Plasmodium falciparum | item: CN(C)c1ccc(O)c2c1C[C@H]1C[C@H]3[C@H](N(C)C)C(O)=C(C(N)=O)C(=O)[C@@]3(O)C(O)=C1C2=O
Return: 5.45

====

system: Plasmodium falciparum; test: microbe, parasite or virus in culture; type: functional, organism-based, K1; conditions: Plasmodium falciparum, K1, 72 h
The label is true for IC50 below 7 µM and false for IC50 equal to or exceeding 7 µM.

Reference set, count: 3
1) C[C@@H]1[C@H](O)[C@@H](C)/C=C/C=C/C=C/C=C/C=C/C=C/C=C/[C@H](O[C@@H]2O[C@H](O)[C@@H](O)[C@H](N)[C@@H]2O)C[C@@H]2O[C@](O)(C[C@@H](O)C[C@@H](O)[C@H](O)CC[C@@H](O)C[C@@H](O)CC(=O)O[C@H]1C)C[C@H](O)[C@H]2C(=O)O: true
2) CN(C)CCC=C1c2ccccc2CCc2ccccc21: true
3) O[C@@H](c1cc(C(F)(F)F)nc2c(C(F)(F)F)cccc12)[C@H]1CCCCN1 [(S,R)-MEFLOQUINE]: true

Enquiry: Is IC50 of CC(C)c1nc(CN(C)C(=O)N[C@H](C(=O)N[C@@H](Cc2ccccc2)C[C@H](O)[C@H](Cc2ccccc2)NC(=O)OCc2cncs2)C(C)C)cs1 strictly below 7 µM?
Return: false

Enquiry: Is IC50 of CO[C@H]1/C=C/O[C@]2(C)Oc3c(C)c(O)c4c(O)c(c5c(nc6cc(C)ccn65)c4c3C2=O)NC(=O)/C(C)=C\C=C\[C@H](C)[C@H](O)[C@@H](C)[C@@H](O)[C@H](C)[C@H](OC(C)=O)[C@H]1C strictly below 7 µM?
Return: true

Enquiry: Is IC50 of COC1=CC(=O)C[C@@H](C)[C@]12Oc1c(Cl)c(OC)cc(OC)c1C2=O strictly below 7 µM?
Return: false
